Listed here: molecules with reported pIC50 for Kappa-type opioid receptor (Cavia porcellus, UniProt P41144).
As a rule, pIC50 stands for the negative log10 of the concentration, concentration in M.

Some molecules with recorded pIC50:
substanceSmiles	pIC50
CC[C@H](C)[C@H](NC(=O)[C@H](CCCNC(=N)N)NC(=O)[C@H](CCCNC(=N)N)NC(=O)[C@H](CC(C)C)NC(=O)[C@H](Cc1ccccc1)NC(=O)[C@@H](CCC(=O)O)NC(=O)CNC(=O)[C@@H](N)Cc1ccc(O)cc1)C(=O)N[C@@H](CCCNC(=N)N)C(=O)N1CCC[C@H]1C(=O)N[C@@H](CCCCN)C(N)=O	5.96
CC[C@H](C)[C@H](NC(=O)[C@H](CCCN=C(N)N)NC(=O)[C@H](CCCN=C(N)N)NC(=O)[C@H](CC(C)C)NC(=O)[C@H](Cc1ccccc1)NC(=O)[C@H](NC(=O)CNC(=O)[C@@H](N)Cc1ccc(O)cc1)[C@@H](C)c1ccccc1)C(=O)N[C@@H](CCCN=C(N)N)C(=O)N1CCC[C@H]1C(=O)N[C@@H](CCCCN)C(N)=O	8.22
CC[C@H](C)[C@H](NC(=O)[C@H](CCCN=C(N)N)NC(=O)[C@H](CCCN=C(N)N)NC(=O)[C@H](CC(C)C)NC(=O)[C@H](Cc1ccccc1)NC(=O)[C@@H](NC(=O)CNC(=O)[C@@H](N)Cc1ccc(O)cc1)[C@@H](C)c1c(C)cccc1C)C(=O)N[C@@H](CCCN=C(N)N)C(=O)N1CCC[C@H]1C(=O)N[C@@H](CCCCN)C(N)=O	6.95
CC[C@H](C)[C@H](NC(=O)[C@H](CCCN=C(N)N)NC(=O)[C@H](CCCN=C(N)N)NC(=O)[C@H](CC(C)C)NC(=O)[C@H](Cc1ccccc1)NC(=O)[C@@H](Cc1ccc(O)cc1)NC(=O)CNC(=O)[C@@H](N)Cc1ccc(O)cc1)C(=O)N[C@@H](CCCN=C(N)N)C(=O)N1CCC[C@H]1C(=O)N[C@@H](CCCCN)C(N)=O	7.64
CC[C@H](C)[C@H](NC(=O)[C@H](CCCN=C(N)N)NC(=O)[C@H](CCCN=C(N)N)NC(=O)[C@H](CC(C)C)NC(=O)[C@H](Cc1ccccc1)NC(=O)[C@@H](Cc1ccccc1)NC(=O)CNC(=O)[C@@H](N)Cc1ccc(O)cc1)C(=O)N[C@@H](CCCN=C(N)N)C(=O)N1CCC[C@H]1C(=O)N[C@@H](CCCCN)C(N)=O	8.23

Look up pIC50 for this molecule: `CC[C@H](C)[C@H](NC(=O)[C@H](CCCN=C(N)N)NC(=O)[C@H](CCCN=C(N)N)NC(=O)[C@H](CC(C)C)NC(=O)[C@H](Cc1ccccc1)NC(=O)[C@H](CCCCN)NC(=O)CNC(=O)[C@@H](N)Cc1ccc(O)cc1)C(=O)N[C@@H](CCCN=C(N)N)C(=O)N1CCC[C@H]1C(=O)N[C@@H](CCCCN)C(N)=O`
6.62

Look up pIC50 for this molecule: `CC[C@H](C)[C@H](NC(=O)[C@H](CCCNC(=N)N)NC(=O)[C@H](CCCNC(=N)N)NC(=O)[C@H](CC(C)C)NC(=O)[C@H](Cc1ccccc1)NC(=O)[C@@H](CCCCN)NC(=O)CNC(=O)[C@@H](N)Cc1ccc(O)cc1)C(=O)N[C@@H](CCCNC(=N)N)C(=O)N1CCC[C@H]1C(=O)N[C@@H](CCCCN)C(N)=O`
6.42

Look up pIC50 for this molecule: `CC[C@H](C)[C@H](NC(=O)[C@H](CCCN=C(N)N)NC(=O)[C@H](CCCN=C(N)N)NC(=O)[C@H](CC(C)C)NC(=O)[C@H](Cc1ccccc1)NC(=O)[C@H](Cc1ccc(O)cc1)NC(=O)CNC(=O)[C@@H](N)Cc1ccc(O)cc1)C(=O)N[C@@H](CCCN=C(N)N)C(=O)N1CCC[C@H]1C(=O)N[C@@H](CCCCN)C(N)=O`
8.05
